Origin of values: ChEMBL document CHEMBL1128136

Target System: Type-1 angiotensin II receptor (Homo sapiens)
Sequence (P30556 whole entry): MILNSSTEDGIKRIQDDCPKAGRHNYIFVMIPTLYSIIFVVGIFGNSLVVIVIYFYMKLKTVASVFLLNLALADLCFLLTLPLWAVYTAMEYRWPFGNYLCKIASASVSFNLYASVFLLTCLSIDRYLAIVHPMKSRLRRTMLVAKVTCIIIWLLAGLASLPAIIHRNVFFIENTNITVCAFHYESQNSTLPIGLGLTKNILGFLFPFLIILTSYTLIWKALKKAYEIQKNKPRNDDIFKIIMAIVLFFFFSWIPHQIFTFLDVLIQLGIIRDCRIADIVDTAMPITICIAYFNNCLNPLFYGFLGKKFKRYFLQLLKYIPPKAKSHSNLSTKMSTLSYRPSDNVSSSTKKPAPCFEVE
Experiment Summary: Tested for inhibition of Angiotensin II specific binding to Angiotensin II receptor, type 1 in the recombinant human AT-1 receptor expressed in LhAT-1D6 cells
Documented IC50 across a set of molecules

Structure String	IC50, nM
CCCCc1ncc(CNCC(=O)O)n1Cc1ccc(C(=O)O)cc1	298
CCCCc1ncc(CN[C@H](Cc2c[nH]c3ccccc23)C(=O)O)n1Cc1ccc(C(=O)O)cc1	2.9
CCCCc1ncc(CN[C@@H](Cc2c[nH]c3ccccc23)C(=O)O)n1Cc1ccc(C(=O)O)cc1	48.3
